// each record: one item and its pIC50 for UniProtKB P04035
pIC50: −log10 of the molar value.
Measured endpoint: pIC50

{"columns": ["Structure as smiles", "Measured number"],
 "data": [
  ["CC(C)n1c(CC[C@@H](O)C[C@@H](O)CC(=O)O)c(-c2ccc(F)cc2)c(-c2ccccc2)c1C(=O)NCc1ccc(C#N)cc1", 9.70],
  ["CNC(=O)c1c(-c2ccccc2)c(-c2ccc(F)cc2)c(CC[C@@H](O)C[C@@H](O)CC(=O)[O-])n1C(C)C.[Na+]", 8.06],
  ["CC(C)n1c(CC[C@@H](O)C[C@@H](O)CC(=O)O)c(-c2ccc(F)cc2)c(-c2ccccc2)c1C(=O)NCc1ccc(C(=O)O)cc1", 8.66],
  ["COc1cccc(NC(=O)c2c(-c3ccc(F)cc3)c(-c3ccc(F)cc3)c(CC[C@@H](O)C[C@@H](O)CC(=O)O)n2C(C)C)c1", 8.18]
]}

====

# maps each entry to its IC50
Target sequence: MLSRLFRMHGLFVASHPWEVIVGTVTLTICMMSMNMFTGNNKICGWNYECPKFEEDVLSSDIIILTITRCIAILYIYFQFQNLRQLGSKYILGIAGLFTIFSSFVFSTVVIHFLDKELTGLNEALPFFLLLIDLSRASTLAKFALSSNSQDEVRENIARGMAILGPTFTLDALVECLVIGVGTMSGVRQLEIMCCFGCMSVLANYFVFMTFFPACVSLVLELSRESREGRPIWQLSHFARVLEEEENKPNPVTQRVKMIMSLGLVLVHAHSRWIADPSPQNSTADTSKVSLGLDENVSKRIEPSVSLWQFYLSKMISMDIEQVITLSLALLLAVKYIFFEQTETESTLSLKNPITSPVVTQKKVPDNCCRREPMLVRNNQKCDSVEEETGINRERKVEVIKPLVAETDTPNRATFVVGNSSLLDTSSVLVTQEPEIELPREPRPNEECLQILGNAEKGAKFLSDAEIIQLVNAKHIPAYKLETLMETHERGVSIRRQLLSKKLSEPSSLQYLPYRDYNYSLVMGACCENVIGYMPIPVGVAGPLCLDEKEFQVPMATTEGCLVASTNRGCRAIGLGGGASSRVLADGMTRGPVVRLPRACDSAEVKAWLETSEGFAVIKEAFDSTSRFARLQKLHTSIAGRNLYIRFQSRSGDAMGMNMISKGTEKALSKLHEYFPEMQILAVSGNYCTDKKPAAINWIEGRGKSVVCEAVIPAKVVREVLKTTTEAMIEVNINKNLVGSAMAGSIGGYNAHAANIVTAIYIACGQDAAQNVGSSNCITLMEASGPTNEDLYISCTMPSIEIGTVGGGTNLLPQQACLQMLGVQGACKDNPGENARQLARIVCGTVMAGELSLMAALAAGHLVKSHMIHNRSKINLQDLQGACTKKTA

{"columns": ["Structure as smiles", "IC50 (nM)"],
 "data": [
  ["CC(C)n1c(CC[C@@H](O)C[C@@H](O)CC(=O)O)c(-c2ccc(F)cc2)c(-c2ccc(F)cc2)c1C(=O)Nc1cccc(O)c1", 0.7],
  ["CC(C)n1c(CC[C@@H](O)C[C@@H](O)CC(=O)O)c(-c2ccc(F)cc2)c(-c2ccccc2)c1C(=O)Nc1ccc(S(N)(=O)=O)cc1", 2.9],
  ["CC(C)n1c(CC[C@@H](O)C[C@@H](O)CC(=O)O)c(-c2ccc(F)cc2)c(-c2ccccc2)c1C(=O)NCc1ccccn1", 0.8],
  ["CC(C)n1c(CC[C@@H](O)C[C@@H](O)CC(=O)O)c(-c2ccc(F)cc2)c(-c2ccccc2)c1C(=O)NCc1cccc(C(N)=O)c1", 1.2],
  ["Cc1cnc(CNC(=O)c2c(-c3ccccc3)c(-c3ccc(F)cc3)c(CC[C@@H](O)C[C@@H](O)CC(=O)O)n2C(C)C)[nH]1", 3.4],
  ["COc1ccc(CNC(=O)c2c(-c3ccccc3)c(-c3ccc(F)cc3)c(CC[C@@H](O)C[C@@H](O)CC(=O)O)n2C(C)C)cc1", 0.8],
  ["CC(C)n1c(CC[C@@H](O)C[C@@H](O)CC(=O)O)c(-c2ccc(F)cc2)c(-c2ccccc2)c1C(=O)NCc1ccc(C(=O)N(C)C)cc1", 1.2]
]}

The measurements presented in this section are drawn from ChEMBL document CHEMBL1140655.
